Value source: ChEMBL document CHEMBL1139747

- target or test system: Peroxisome proliferator-activated receptor alpha (Homo sapiens, UniProt Q07869)
- Sequence (Q07869 whole entry, the tested form may be a part): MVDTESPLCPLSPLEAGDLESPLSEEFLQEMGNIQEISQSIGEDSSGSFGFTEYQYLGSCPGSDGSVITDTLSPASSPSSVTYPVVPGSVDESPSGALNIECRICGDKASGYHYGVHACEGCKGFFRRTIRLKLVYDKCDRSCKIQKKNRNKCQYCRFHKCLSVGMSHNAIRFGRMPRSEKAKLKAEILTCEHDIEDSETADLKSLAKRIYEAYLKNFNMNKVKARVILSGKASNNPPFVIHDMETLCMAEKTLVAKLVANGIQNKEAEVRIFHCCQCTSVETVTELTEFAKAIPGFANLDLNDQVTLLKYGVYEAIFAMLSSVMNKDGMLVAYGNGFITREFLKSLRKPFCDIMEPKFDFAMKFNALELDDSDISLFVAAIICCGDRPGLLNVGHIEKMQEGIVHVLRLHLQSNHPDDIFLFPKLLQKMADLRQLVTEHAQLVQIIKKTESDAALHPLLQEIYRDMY
- method description: Agonist activity at human PPAR alpha in HepG2 cells by PPAR-GAL4 transactivation assay
pEC50: −log10 of the molar value.
parameter measured: pEC50

Inquiry: Give Peroxisome proliferator-activated receptor alpha (Homo sapiens, UniProt Q07869) pEC50 for Cc1oc(-c2ccccc2)nc1CCOc1ccc(CC2(C(=O)O)CCCCO2)nc1 (stereo not drawn)
Reply text: < 5.00

Inquiry: Give Peroxisome proliferator-activated receptor alpha (Homo sapiens, UniProt Q07869) pEC50 for CCOC(Cc1ccc(OCCCc2nc(-c3ccccc3)oc2C)cn1)C(=O)O (stereo not drawn)
Reply text: 6.05

Inquiry: Give Peroxisome proliferator-activated receptor alpha (Homo sapiens, UniProt Q07869) pEC50 for Cc1oc(-c2ccccc2)nc1CCOc1ncc(CC2(C(=O)O)CCCO2)cn1 (stereo not drawn)
Reply text: < 5.00
